Recorded values, source ChEMBL document CHEMBL3045512.

System: Mus musculus
ASSAY_OVERVIEW: Toxicity in Mus musculus albino (mouse) assessed as SOD activity per gram of Hb at 300 mg/kg, po for 10 days (reference value: 12.7+/- 2.08 U/g Hb)
Assay type: organism-based
Set-up: dose 300 mg/kg, route oral
CONDITION_SUMMARY: in vivo, 240 h
PROPERTY_LABEL: Activity

CCOC(=O)c1nn2c(=O)c3ccccc3nc2n1-c1ccc(S(=O)(=O)NC(C)=O)cc1; 14 U/g Hb
COc1ccccc1/C=N/n1c(Nc2ccc(S(N)(=O)=O)cc2)nc2ccccc2c1=O; 13.1 U/g Hb
CC(=O)NS(=O)(=O)c1ccc(-n2c(-c3ccccc3O)nn3c(=O)c4ccccc4nc23)cc1; 12.4 U/g Hb

----------
System: Mus musculus
ASSAY_OVERVIEW: Toxicity in Mus musculus albino (mouse) assessed as GPx activity per gram of Hb at 300 mg/kg, po for 10 days (Rvb =179.16 +/- 10.45 U/g Hb)
Assay type: organism-based
Design: dose 300 mg/kg, route oral
CONDITION_SUMMARY: in vivo, 240 h
Activity overview
PROPERTY_LABEL: Activity (U/g Hb)

COc1ccccc1/C=N/n1c(Nc2ccc(S(N)(=O)=O)cc2)nc2ccccc2c1=O; 183
CCOC(=O)c1nn2c(=O)c3ccccc3nc2n1-c1ccc(S(=O)(=O)NC(C)=O)cc1; 177
CC(=O)NS(=O)(=O)c1ccc(-n2c(-c3ccccc3O)nn3c(=O)c4ccccc4nc23)cc1; 180

----------
System: Mus musculus
ASSAY_OVERVIEW: Toxicity in Mus musculus albino (mouse) assessed as GPx activity per gram of Hb at 600 mg/kg, po for 10 days (Rvb =179.16 +/- 10.45 U/g Hb)
Format: organism-based
Design: dose 600 mg/kg, route oral
CONDITION_SUMMARY: in vivo, 240 h
PROPERTY_LABEL: Activity (U/g Hb)

COc1ccc2c(c1)c(CC(=O)O)c(C)n2C(=O)c1ccc(Cl)cc1 [INDOMETHACIN]; 134
